Below, each of the compounds is paired with its reported IC50 value.
Biological target: c-Met (cytoplasmic domain) (Homo sapiens)
Construct: 10 ng/mL c-Met (cytoplasmic domain, Invitrogen Corporation #PV3143); purchased Invitrogen Corporation PV3143
Sequence (P08581 956-1390 limits assumed): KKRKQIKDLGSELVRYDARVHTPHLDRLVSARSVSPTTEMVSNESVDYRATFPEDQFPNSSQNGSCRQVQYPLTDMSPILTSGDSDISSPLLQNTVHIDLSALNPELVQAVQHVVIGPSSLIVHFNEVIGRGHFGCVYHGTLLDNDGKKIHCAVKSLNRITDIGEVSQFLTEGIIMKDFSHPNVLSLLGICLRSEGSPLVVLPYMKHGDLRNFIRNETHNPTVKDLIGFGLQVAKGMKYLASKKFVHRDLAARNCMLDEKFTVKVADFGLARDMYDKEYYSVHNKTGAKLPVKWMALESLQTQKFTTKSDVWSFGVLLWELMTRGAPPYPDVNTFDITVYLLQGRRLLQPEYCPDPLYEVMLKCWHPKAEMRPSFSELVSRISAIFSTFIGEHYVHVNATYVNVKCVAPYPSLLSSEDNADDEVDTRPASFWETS
Test: c-Met Kinase Assay (same methods as for ALK, with modifications)
Type: biochemical
Settings: 1 μM ATP (Km level), 10 ng/mL c-Met; read-out: cMet Activity (c-Met kinase inhibition, IC50 class)

The following compounds have reported results that may help.
COc1cc2c(cc1Nc1ncc(Cl)c(Nc3ccc(N(C)C)cc3S(=O)(=O)C(C)C)n1)CCN(CC(=O)N(C)C)CC2 : > 10 µM
COc1cc2c(cc1Nc1ncc(Cl)c(N[C@@H]3CCCC[C@H]3NS(C)(=O)=O)n1)CCN(C(CF)CF)CC2 : > 10 µM
COCCOc1ccc(Nc2nc(Nc3cc4c(cc3OC)CCN(CCS(C)(=O)=O)CC4)ncc2Cl)c(OC)c1 : > 10 µM
CC1(C)CCC(=O)Nc2ccc(Nc3ncc(Cl)c(Nc4c(F)cccc4S(C)(=O)=O)n3)cc21 : 1 to 10 µM

Report IC50 for COc1cc2c(cc1Nc1ncc(Cl)c(Nc3ccccc3S(=O)(=O)N(C)C)n1)CCN(CC(=O)N(C)C)CC2 please. 1 to 10 µM

Report IC50 for CNC(=O)c1scc(C)c1Nc1nc(Nc2ccc3c(c2)CCN(CCOC)CC3)ncc1Cl please. < 0.1 µM

Report IC50 for COCCCNC(=O)c1ccccc1Nc1nc(Nc2ccc3c(c2)CCN(CCOC)CC3)ncc1Cl please. 1 to 10 µM

Report IC50 for COc1cc2c(cc1Nc1ncc(Cl)c(Nc3cccc(N4CCOCC4)c3)n1)CCN(CC(=O)N(C)C)CC2 please. > 10 µM
